system: Recombinant Myceliophthora thermophila laccase (rMtL); test: Bleaching of methyl orange using rMtL and NOH-type enhancing agents (initial bleaching rate); assay type: biochemical; conditions: pH 6; rMtL solution diluted 1:300; 0.2 mM mediator; 30° C.; large negative numbers = best performance
Mark MET for Initial changes per minute in A464 nm of methyl orange using rMtL under -0.001 per minute, NOT MET if at or over.

Below, 3 compounds whose answers are already recorded.
CCOc1ccc(N=[N+]([O-])c2ccc(OCC)cc2)cc1 :: NOT MET
O=C(c1ccccc1)N(O)c1ccccc1 [N-benzoyl-N-phenylhydroxylamine, N-Benzoyl-N-phenylhydroxylamine] :: MET
[O-][n+]1cccc2ccccc21 [Quinoline-N-oxide] :: MET

Query :: Hello, is Initial changes per minute in A464 nm of methyl orange using rMtL of the following compound strictly smaller than -0.001 per minute? [O-][n+]1ccc2ccccc2c1 [Iso-quinoline-N-oxide]
Result :: MET

----------
Target: Polyporus pinsitus laccase (Trametes villosa, UniProt Q99044)
Construct: made in house
Sequence (Q99044 22-520): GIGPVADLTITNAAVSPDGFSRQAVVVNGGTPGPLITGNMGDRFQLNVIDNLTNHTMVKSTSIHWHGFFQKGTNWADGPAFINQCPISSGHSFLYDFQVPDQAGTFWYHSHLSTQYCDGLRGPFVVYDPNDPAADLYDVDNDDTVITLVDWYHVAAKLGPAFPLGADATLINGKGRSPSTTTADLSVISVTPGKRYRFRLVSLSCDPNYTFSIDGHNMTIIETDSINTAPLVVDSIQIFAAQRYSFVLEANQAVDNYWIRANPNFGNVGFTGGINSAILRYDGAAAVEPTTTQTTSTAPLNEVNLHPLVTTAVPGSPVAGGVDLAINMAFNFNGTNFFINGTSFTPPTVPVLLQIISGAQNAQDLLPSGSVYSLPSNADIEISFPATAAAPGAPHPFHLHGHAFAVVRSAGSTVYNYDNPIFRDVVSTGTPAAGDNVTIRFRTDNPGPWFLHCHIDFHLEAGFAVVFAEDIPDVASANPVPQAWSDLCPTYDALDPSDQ
Assay: Bleaching of methyl orange using rPpL and NOH-type enhancing agents (initial bleaching rate)
Type: biochemical
Conditions: pH 6; rPpL solution diluted 1:200; 0.2 mM mediator; 30° C.; large negative numbers = best performance
quantity-measured: Initial changes per minute in A464 nm of methyl orange using rPpL (per minute)
All answers are understood in per minute, so give the number only.

Before answering, review these 4 worked examples.
ON=C(c1ccccn1)c1ccccn1 :: −0.053
[O-][n+]1cccc2ccccc21 [Quinoline-N-oxide] :: −0.016
[O-][n+]1ccc2ccccc2c1 [Iso-quinoline-N-oxide] :: −0.014
O=C1c2ccccc2C(=O)N1O [N-hydroxyphthalimide] :: −0.011

# next molecule below
Query :: Looking for the measured Initial changes per minute in A464 nm of methyl orange using rPpL of `CS(=O)(=O)c1ccc2ccn(OC(=O)c3ccccc3)c2c1` , can you help?
Result :: −0.001

----------
system: Recombinant Myceliophthora thermophila laccase (rMtL); experiment: Bleaching of methyl orange using rMtL and NOH-type enhancing agents (initial bleaching rate); assay type: biochemical; settings: pH 6; rMtL solution diluted 1:300; 0.2 mM mediator; 30° C.; large negative numbers = best performance
Please note: T applies when Initial changes per minute in A464 nm of methyl orange using rMtL is -0.005 per minute or greater, and F applies otherwise.

Query :: Can `CC[n+]1ccc(-c2ccc(S(=O)(=O)[O-])cc2)o1.O` be said to have Initial changes per minute in A464 nm of methyl orange using rMtL at or above -0.005 per minute?
Result :: T

Query :: Same question, O=c1c2ccccc2nnn1O [3-hydroxy-1,2,3-benzotriazin-4(3H)-one, 3-Hydroxy-1,2,3-benzotriazin-4(3H)-one] this time
Result :: T

Query :: Same question, `CS(=O)(=O)c1ccc2ccn(OC(=O)c3ccccc3)c2c1` this time
Result :: T

Query :: Same question, On1nnc2ccccc21 [1-hydroxybenzotriazole, 1-Hydroxybenzotriazole] this time
Result :: F

----------
Target: Polyporus pinsitus laccase (Trametes villosa, UniProt Q99044)
Construct: made in house
Assay: Bleaching of methyl orange using rPpL and NOH-type enhancing agents (initial bleaching rate)
Assay type: biochemical
Details: pH 6; rPpL solution diluted 1:200; 0.2 mM mediator; 30° C.; large negative numbers = best performance
Description: Britton-Robinson buffer is composed of: Methyl orange (Merck, Germany) Reactions were started by addition of enzyme. Absorbance at 464 nm was followed for 3 minutes (readings every 5 seconds) on a Cobas Fara at 30° C. Initial bleaching rates were determined from the first linear part of the progress curves. The N—OH compounds listed above were tested as laccase mediators in bleaching of methyl orange with three recombinant laccases (rPpL, rMtL and rCcL) at various pH values. […]
quantity-measured: Initial changes per minute in A464 nm of methyl orange using rPpL (per minute)
All answers are understood in per minute, so give the number only.

Before answering, review these 2 worked examples.
O=c1[nH]c(=O)[nH]c(=O)[nH]1 [Cyanuric acid] :: −0.011
On1nnc2ccccc21 [1-hydroxybenzotriazole, 1-Hydroxybenzotriazole] :: −0.017

# next molecule below
Query :: Looking for the measured Initial changes per minute in A464 nm of methyl orange using rPpL of CCOc1ccc(N=[N+]([O-])c2ccc(OCC)cc2)cc1 [p,p′-azoxydiphenetole, p,p′-Azoxydiphenetole] , can you help?
Result :: 0.017
